# System: expanded OPCs
# ASSAY INFO: cells
# TEST CONTEXT: Rattus norvegicus, 72 h, read-out: 10 µM (% DMSO), alamarBlue viability, NCC library compound at 10 µM, sheet "All Tox data"
Reported viability at 10 µM is given for each of the following molecules.

Below, each entry is followed by its recorded viability at 10 µM result.
MOLECULE: CCOc1cc(CC(=O)N[C@@H](CC(C)C)c2ccccc2N2CCCCC2)ccc1C(=O)O [Repaglinide]
viability at 10 µM: 125%

MOLECULE: C[C@H]1O[C@@H](O[C@H]2[C@@H](O)C[C@H](O[C@H]3[C@@H](O)C[C@H](O[C@H]4CC[C@@]5(C)[C@H](CC[C@@H]6[C@@H]5C[C@@H](O)[C@]5(C)[C@@H](C7=CC(=O)OC7)CC[C@]65O)C4)O[C@@H]3C)O[C@@H]2C)C[C@H](O)[C@@H]1O
viability at 10 µM: 106%

MOLECULE: COc1ccc2cc([C@H](C)C(=O)O)ccc2c1
viability at 10 µM: 94%

MOLECULE: O=C1Nc2ccccc2/C1=C1/Nc2ccccc2C1=O
viability at 10 µM: 46.3%

MOLECULE: Cc1c(OCC(F)(F)F)ccnc1C[S+]([O-])c1nc2ccccc2[nH]1 (stereo not shown)
viability at 10 µM: 99.9%

Lookup result for `CCc1c2c(nc3ccc(OC(=O)N4CCC(N5CCCCC5)CC4)cc13)-c1cc3c(c(=O)n1C2)COC(=O)[C@]3(O)CC` ; measured viability at 10 µM: 27.9%

The recorded viability at 10 µM for entry Cc1ncc([N+](=O)[O-])n1CC(O)CCl (stereo not shown) equals 82.2%
